Please go through the items and note down their Ki.
target: hAR (Homo sapiens, UniProt P10275); construct: expressed in transfected cells; host or cells: COS-1 cells transiently transfected with pRShAR, pRS-β-Gal and pGEM; experiment: IR Binding Assay: displacement of 3H-DHT in COS-1 cells transfected with pRShAR
Sequence (P10275 whole entry): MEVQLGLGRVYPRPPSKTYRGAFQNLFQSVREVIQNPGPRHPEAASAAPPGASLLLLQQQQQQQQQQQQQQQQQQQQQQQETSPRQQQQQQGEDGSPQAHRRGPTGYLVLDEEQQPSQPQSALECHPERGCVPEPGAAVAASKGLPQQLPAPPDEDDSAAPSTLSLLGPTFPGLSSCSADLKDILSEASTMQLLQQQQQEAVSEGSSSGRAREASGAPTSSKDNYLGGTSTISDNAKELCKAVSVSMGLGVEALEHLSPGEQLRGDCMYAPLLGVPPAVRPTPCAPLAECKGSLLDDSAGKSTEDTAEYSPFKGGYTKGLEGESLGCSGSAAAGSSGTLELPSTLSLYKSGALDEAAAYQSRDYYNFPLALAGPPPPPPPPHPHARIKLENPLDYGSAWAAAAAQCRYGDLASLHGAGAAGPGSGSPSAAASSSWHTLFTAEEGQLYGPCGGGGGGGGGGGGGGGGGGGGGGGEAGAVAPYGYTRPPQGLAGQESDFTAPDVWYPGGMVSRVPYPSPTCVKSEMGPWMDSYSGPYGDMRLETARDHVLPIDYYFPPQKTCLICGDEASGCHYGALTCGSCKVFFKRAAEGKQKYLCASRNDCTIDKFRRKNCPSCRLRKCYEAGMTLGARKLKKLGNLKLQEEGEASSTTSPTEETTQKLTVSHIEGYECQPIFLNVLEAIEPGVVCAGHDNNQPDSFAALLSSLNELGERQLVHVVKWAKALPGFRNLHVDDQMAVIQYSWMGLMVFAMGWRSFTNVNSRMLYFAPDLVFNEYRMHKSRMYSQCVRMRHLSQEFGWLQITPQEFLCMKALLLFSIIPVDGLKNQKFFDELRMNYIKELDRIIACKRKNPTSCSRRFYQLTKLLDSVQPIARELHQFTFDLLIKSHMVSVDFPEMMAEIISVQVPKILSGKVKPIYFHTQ

Q. Could you share which Ki value was measured for COc1cccc2c1-c1ccc3[nH]c(=O)cc(C)c3c1C(C)O2 (racemic) ?
A. > 50 nM

Q. Could you share which Ki value was measured for Cc1cc(=O)[nH]c2ccc3c4c(CO)cccc4oc(=O)c3c12 ?
A. 10 to 50 nM

Q. Could you share which Ki value was measured for COc1cccc2c1-c1ccc3[nH]c(=O)cc(C(F)(F)F)c3c1OC2 ?
A. 10 to 50 nM

Q. Could you share which Ki value was measured for COc1cccc2c(=O)oc3c(ccc4[nH]c(=O)cc(C(F)(F)F)c43)c12 ?
A. 10 to 50 nM

Q. Could you share which Ki value was measured for O=c1cc(C(F)(F)F)c2c3c(ccc2[nH]1)-c1c(O)cccc1OC3 ?
A. < 10 nM

Q. Could you share which Ki value was measured for CC(C)(C)C(=O)Oc1cccc2c1-c1ccc3[nH]c(=O)cc(C(F)(F)F)c3c1CO2 ?
A. < 10 nM

Q. Could you share which Ki value was measured for COc1c(OC(=O)C(C)(C)C)ccc2oc(=O)c3c(ccc4[nH]c(=O)cc(C)c43)c12 ?
A. 10 to 50 nM

Q. Could you share which Ki value was measured for COc1cccc2c1-c1ccc3[nH]c(=O)cc(C(F)(F)F)c3c1CO2 ?
A. 10 to 50 nM

Q. Could you share which Ki value was measured for COc1cccc2c1-c1ccc3[nH]c(=O)cc(C(F)(F)F)c3c1C(O)O2 (racemic) ?
A. > 50 nM

* * *

Please go through the items and note down their Ki.
Molecular target: hAR (Homo sapiens)
Construct: expressed in transfected cells; host or cells: COS-1 cells transiently transfected with pRShAR, pRS-β-Gal and pGEM
Experiment: IR Binding Assay: displacement of 3H-DHT in COS-1 cells transfected with pRShAR
Conditions: 1 nM 3H-DHT, transfected COS-1 cells, 3 hours at 37° C., Cheng-Prusoff; read-out: Binding to hAR (Ki value ranges)
Protocol: COS-1 cells in 96-well microtiter plates containing DMEM-10% FBS were transfected using standard techniques with plasmids pRShAR (2 ng/well), pRS-β-Gal (50 ng/well) and pGEM (48 ng/well). […] Test Compounds. To determine binding affinity (Ki) for test compounds, the data from each concentration of test compound was calculated as a percentage of the signal for the sample with no test compound. […] The Ki values were determined by the Cheng-Prusoff equation, where: […]

Q. Could you share which Ki value was measured for CCOc1ccc2oc(=O)c3c(ccc4c3c(C)cc(=O)n4CC)c2c1OC ?
A. > 50 nM

Q. Could you share which Ki value was measured for Cc1cc(=O)[nH]c2ccc3c4c(OC(=O)C(C)(C)C)cccc4oc(=O)c3c12 ?
A. < 10 nM

Q. Could you share which Ki value was measured for COC(=O)c1cccc2oc(=O)c3c(ccc4[nH]c(=O)cc(C)c43)c12 ?
A. > 50 nM

Q. Could you share which Ki value was measured for COc1cccc2c1-c1ccc3[nH]c(=O)cc(C)c3c1C(=O)OC2 ?
A. > 50 nM

Q. Could you share which Ki value was measured for CCOc1ccc2oc(=O)c3c(ccc4[nH]c(=O)cc(C)c43)c2c1OC ?
A. > 50 nM

Q. Could you share which Ki value was measured for COc1ccc2oc(=O)c3c(ccc4[nH]c(=O)cc(C)c43)c2c1 ?
A. > 50 nM

Q. Could you share which Ki value was measured for COc1c(OC(C)C)ccc2oc(=O)c3c(ccc4[nH]c(=O)cc(C)c43)c12 ?
A. 10 to 50 nM

Q. Could you share which Ki value was measured for Cc1c([N+](=O)[O-])ccc2c1c(=O)oc1cccc(O)c12 ?
A. < 10 nM

Q. Could you share which Ki value was measured for COc1cccc2c1-c1ccc3[nH]c(=O)cc(C)c3c1C(O)O2 (racemic) ?
A. > 50 nM

Q. Could you share which Ki value was measured for COc1cccc2c1-c1ccc3[nH]c(=O)cc(C)c3c1C(C)(OC)O2 (racemic) ?
A. > 50 nM

Q. Could you share which Ki value was measured for COc1c(O)ccc2oc(=O)c3c(ccc4[nH]c(=O)cc(C)c43)c12 ?
A. < 10 nM

Q. Could you share which Ki value was measured for COc1cccc2c1-c1ccc3[nH]c(=O)cc(C)c3c1CO2 ?
A. > 50 nM

Q. Could you share which Ki value was measured for COc1cccc2oc(=O)c3c(C)c([N+](=O)[O-])ccc3c12 ?
A. > 50 nM

Q. Could you share which Ki value was measured for COc1c(O)ccc2c1-c1ccc3[nH]c(=O)cc(C)c3c1C(OC)O2 (racemic) ?
A. > 50 nM

Q. Could you share which Ki value was measured for COc1c(O)ccc2c1-c1ccc3[nH]c(=O)cc(C)c3c1CO2 ?
A. < 10 nM
